# target.system: human AMCase (hAMCase) (Homo sapiens)
# Sequence (Q9BZP6 22-398): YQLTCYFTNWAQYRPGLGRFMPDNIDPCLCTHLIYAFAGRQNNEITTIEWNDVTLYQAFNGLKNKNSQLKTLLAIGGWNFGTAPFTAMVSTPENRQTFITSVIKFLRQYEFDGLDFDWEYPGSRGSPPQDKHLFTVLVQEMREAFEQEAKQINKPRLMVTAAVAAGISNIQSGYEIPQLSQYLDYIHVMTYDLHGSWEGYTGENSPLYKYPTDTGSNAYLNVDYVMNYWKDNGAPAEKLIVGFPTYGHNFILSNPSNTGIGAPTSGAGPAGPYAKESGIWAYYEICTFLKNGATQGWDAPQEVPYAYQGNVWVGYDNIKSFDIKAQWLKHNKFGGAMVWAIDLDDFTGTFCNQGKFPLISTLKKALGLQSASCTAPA
measurement.label: IC50 (nM)
Number in nM, nothing else.

Any idea what its IC50 is? The compound is `Cn1cnc2c1c(=O)n(CCCn1c(=O)c3[nH]cnc3n(C)c1=O)c(=O)n2C` 920

---

# target.system: human chitotriosidase (hCHIT1) (Homo sapiens)
# Sequence (Q13231 22-466): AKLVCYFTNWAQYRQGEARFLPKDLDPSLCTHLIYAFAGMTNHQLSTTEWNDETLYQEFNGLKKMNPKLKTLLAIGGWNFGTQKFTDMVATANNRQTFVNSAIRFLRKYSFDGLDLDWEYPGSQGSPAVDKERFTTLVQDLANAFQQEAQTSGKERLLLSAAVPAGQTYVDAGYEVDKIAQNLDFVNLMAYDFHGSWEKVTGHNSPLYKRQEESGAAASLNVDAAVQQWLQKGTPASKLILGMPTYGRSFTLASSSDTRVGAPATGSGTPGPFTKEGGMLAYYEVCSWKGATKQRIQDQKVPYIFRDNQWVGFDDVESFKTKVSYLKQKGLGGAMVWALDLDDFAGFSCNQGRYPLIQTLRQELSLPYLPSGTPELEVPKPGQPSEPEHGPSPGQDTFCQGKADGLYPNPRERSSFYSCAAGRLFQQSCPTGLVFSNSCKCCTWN
# experiment.description: Chitinase activity assay with fluorescent 4-MU substrate, hCHIT1
# Type: biochemical
# measurement.setup: read-out: IC50 against hCHIT1
measurement.label: IC50 (µM)
Number in µM, nothing else.

Cn1cnc2c1c(=O)n(CCCn1c(=O)c3c(ncn3C)n(C)c1=O)c(=O)n2C [bisdionin C] :: 8.3

Here is another molecule to look at.
Any idea what its IC50 is? The molecule is Cn1cnc2c1c(=O)n(CCCn1c(=O)c3[nH]cnc3n(C)c1=O)c(=O)n2C [bisdionin F] 17

These data points were gathered from paper PMC3115046.
